target: Corticotropin-releasing factor receptor 2/Corticotropin-releasing factor-binding protein (Homo sapiens, UniProt P24387+Q13324); assay: activators of CRF receptor 2 with binding protein – uHTS hits, confirmation (AID 602473); assay type: functional; details: read-out: EC50_Mean
Sequence (Q13324 whole entry): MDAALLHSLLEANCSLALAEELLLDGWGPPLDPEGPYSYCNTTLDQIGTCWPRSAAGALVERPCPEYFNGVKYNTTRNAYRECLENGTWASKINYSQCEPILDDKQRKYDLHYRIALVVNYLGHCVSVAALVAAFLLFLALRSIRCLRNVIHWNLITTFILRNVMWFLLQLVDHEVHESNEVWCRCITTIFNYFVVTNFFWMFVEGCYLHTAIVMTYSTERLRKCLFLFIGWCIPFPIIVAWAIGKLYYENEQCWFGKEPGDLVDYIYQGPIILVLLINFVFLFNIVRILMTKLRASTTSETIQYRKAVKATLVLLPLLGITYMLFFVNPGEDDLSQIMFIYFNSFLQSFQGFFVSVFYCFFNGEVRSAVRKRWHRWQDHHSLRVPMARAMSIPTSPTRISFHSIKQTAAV
Sequence (P24387 whole entry): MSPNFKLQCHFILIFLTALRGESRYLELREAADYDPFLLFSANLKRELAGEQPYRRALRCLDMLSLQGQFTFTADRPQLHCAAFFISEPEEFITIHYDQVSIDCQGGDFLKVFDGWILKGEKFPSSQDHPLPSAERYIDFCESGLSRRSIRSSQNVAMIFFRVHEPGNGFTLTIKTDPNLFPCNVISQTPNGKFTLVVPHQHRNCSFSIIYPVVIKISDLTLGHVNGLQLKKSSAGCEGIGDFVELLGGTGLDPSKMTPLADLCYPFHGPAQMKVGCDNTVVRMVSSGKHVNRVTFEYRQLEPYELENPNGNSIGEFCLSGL
Calls of active or inactive are those of the source.
Please answer using one outcome listed in active, inactive

Field: example entries. Status: answers known.
Record lookup: outcome of this test for O=C(Nc1cc(C(=O)Nc2ccccc2C(=O)O)cc(C(=O)Nc2ccccc2C(=O)O)c1)c1ccccc1 ?
inactive

Record lookup: outcome of this test for COCCNC(=O)CN(CC1CCCO1)C(=O)CCC(=O)Nc1ccccn1 (configuration not stated) ?
inactive

Others:
Record lookup: outcome of this test for O=C(Oc1ccccc1)c1ccc(NC(=O)c2ccco2)cc1 ?
inactive

Record lookup: outcome of this test for COc1ccc(-c2ccnc(SCC(=O)N3CCN(c4ccccc4)CC3)n2)cc1 ?
inactive

Record lookup: outcome of this test for Cc1ccc2nc(Cl)c(/C=C/C(=O)c3ccco3)cc2c1 ?
inactive

Record lookup: outcome of this test for COC(=O)CSC1=C(C#N)C(c2ccc(Cl)cc2)C(C(=O)OC)C(=O)N1 (configuration not stated) ?
inactive

Record lookup: outcome of this test for Cc1[nH]c(C)c(S(=O)(=O)NCCc2ccccc2)c1C(=O)N1CCCCC1 ?
inactive

Record lookup: outcome of this test for COc1ccc(N2CCN(C3CCCCC3NS(=O)(=O)c3ccc(Cl)cc3)CC2)cc1 (configuration not stated) ?
active

----------
Target or system Cytochrome P450 3A4 (Homo sapiens, UniProt P08684): recorded AC50 listed per item.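 Note: CYP3A4 tested as one member of a cytochrome P450 panel screen.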

GET /values?item= COc1ccc(-n2c3c(c(=O)[nH]c2=O)C(C(F)(F)F)(C(F)(F)F)NC(CC(C)C)=N3)cc1 &system= Cytochrome P450 3A4 (Homo sapiens, UniProt P08684) returns AC50: 17.8 µM (inconclusive)

GET /values?item= CO[C@H]1C[C@@H](O[C@@H]2[C@H](C)[C@H](O[C@@H]3O[C@@H](C)C[C@@H](N(C)C)[C@@H]3O)[C@H](C)C[C@]3(CO3)C(=O)[C@H](C)[C@H](O)[C@H](C)[C@H](C)OC(=O)[C@@H]2C)O[C@@H](C)[C@H]1O &system= Cytochrome P450 3A4 (Homo sapiens, UniProt P08684) returns AC50: 12.6 µM (inconclusive)

GET /values?item= c1ccc(N2CC[C@@]3(CCCNC3)C2)cc1 &system= Cytochrome P450 3A4 (Homo sapiens, UniProt P08684) returns AC50: 20 µM (inconclusive)

GET /values?item= CCSc1ncc(/C=N/Nc2ccc(F)cc2)n1C &system= Cytochrome P450 3A4 (Homo sapiens, UniProt P08684) returns AC50: 1.58 µM (inconclusive)

GET /values?item= CC(=O)n1c(COS(C)(=O)=O)nc2ccccc21 &system= Cytochrome P450 3A4 (Homo sapiens, UniProt P08684) returns AC50: 3.16 µM (inconclusive)

----------
biological target: Short transient receptor potential channel 4 (Mus musculus); assay: calcium entry via TRPC4 opening agents – cell-based, HEK293 TRPC4/mu-opioid, Fluo-4 calcium, dose response (AID 434937); format: functional
Sequence (Q9QUQ5 whole entry): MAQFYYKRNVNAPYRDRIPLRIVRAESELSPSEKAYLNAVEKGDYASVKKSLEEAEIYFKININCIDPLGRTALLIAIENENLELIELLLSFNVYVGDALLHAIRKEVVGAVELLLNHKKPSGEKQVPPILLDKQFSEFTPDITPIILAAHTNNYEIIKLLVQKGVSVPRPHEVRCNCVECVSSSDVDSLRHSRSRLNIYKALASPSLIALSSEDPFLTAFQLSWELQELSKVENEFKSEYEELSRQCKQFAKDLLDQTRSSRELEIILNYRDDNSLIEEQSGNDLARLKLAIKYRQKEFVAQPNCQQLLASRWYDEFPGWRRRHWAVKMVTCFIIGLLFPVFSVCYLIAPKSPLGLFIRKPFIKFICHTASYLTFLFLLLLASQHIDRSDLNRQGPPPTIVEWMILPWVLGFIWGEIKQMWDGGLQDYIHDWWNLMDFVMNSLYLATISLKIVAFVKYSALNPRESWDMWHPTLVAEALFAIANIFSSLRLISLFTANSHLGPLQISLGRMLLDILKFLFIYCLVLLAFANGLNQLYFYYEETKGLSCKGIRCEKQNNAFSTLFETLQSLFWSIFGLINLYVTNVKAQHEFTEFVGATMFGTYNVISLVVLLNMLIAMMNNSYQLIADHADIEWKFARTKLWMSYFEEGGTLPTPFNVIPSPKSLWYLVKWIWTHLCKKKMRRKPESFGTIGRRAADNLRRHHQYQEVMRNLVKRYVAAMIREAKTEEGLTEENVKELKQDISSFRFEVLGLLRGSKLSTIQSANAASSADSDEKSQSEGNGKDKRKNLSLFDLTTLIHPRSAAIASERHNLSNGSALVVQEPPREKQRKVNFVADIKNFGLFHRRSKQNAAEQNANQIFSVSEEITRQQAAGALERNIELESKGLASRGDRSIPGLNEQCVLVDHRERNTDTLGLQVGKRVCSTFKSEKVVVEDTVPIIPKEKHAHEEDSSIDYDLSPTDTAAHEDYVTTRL
Activity calls are given as the source filed them.
outcome-measure: EC50

In plain terms, COc1ccc(C(CNC(=O)CCc2ccsc2)N(C)C)cc1 (configuration not stated) has a documented EC50 of 0.0147 µM (active)

In plain terms, CCOc1ccccc1CN1CCNC(=O)C1CC(=O)N(C)CCc1ccccn1 (configuration not stated) has a documented EC50 of 2.11 µM (active)

In plain terms, O=C(NC(=S)NNC(=O)[C@H]1C[C@@H]1c1ccccc1)c1cccc(F)c1 has a documented EC50 of 4.22 µM (active)

In plain terms, CCOC(=O)[C@@H]1CCNC[C@@H]1c1ccccc1 has a documented EC50 of 3.35 µM (active)

In plain terms, FC(F)(F)c1cnc(N2CCCN(C(S)=Nc3ccccc3)CC2)c(Cl)c1 has a documented EC50 of 0.421 µM (active)

Others:
In plain terms, CNCCCOc1ccc2c(c1)CCC2 has a documented EC50 of 4.73 µM (active)

In plain terms, Cc1onc(-c2ccccc2Cl)c1C(=O)N1CCN(C/C=C/c2ccccc2)CC1 has a documented EC50 of 5.96 µM (active)

----------
molecular target: Cytochrome P450 2D6 (Homo sapiens);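 note: CYP2D6 member of a cytochrome P450 panel assay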
Sequence (P10635 whole entry): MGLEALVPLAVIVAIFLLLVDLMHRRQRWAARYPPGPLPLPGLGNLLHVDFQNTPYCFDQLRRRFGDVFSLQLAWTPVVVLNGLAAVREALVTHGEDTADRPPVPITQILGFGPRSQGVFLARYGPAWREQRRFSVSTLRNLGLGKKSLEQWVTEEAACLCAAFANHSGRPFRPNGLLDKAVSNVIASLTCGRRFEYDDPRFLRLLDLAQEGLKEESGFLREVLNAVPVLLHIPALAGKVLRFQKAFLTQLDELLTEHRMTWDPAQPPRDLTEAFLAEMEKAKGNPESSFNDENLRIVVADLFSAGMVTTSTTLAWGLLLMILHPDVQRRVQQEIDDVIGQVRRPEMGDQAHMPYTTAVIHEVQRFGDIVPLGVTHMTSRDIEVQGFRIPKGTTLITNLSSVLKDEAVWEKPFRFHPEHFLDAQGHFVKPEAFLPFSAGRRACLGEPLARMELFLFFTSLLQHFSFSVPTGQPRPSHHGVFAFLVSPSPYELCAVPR
Each item that follows carries a reported AC50.

A selection of reference data follows.
GET /values?item= CCOC(=O)c1[nH]c(COC(=O)CCOc2ccccc2OC)c(C(=O)OCC)c1C &system= Cytochrome P450 2D6 (Homo sapiens) returns AC50: 15.8 µM (inconclusive)

GET /values?item= c1ccc(N2CC[C@@]3(CCCNC3)C2)cc1 &system= Cytochrome P450 2D6 (Homo sapiens) returns AC50: 10 µM (inconclusive)

GET /values?item= COc1cc(CNCc2cccs2)ccc1OCC(=O)NC(C)(C)C &system= Cytochrome P450 2D6 (Homo sapiens) returns AC50: 10 µM (inconclusive)

GET /values?item= O=C(CCNc1cccc(Cl)c1)c1cccs1 &system= Cytochrome P450 2D6 (Homo sapiens) returns AC50: 22.4 µM (inconclusive)

Shift focus to the following entry.
GET /values?item= CC(=O)n1c(COS(C)(=O)=O)nc2ccccc21 &system= Cytochrome P450 2D6 (Homo sapiens) returns AC50: 5.01 µM (inconclusive)

----------
Each item that follows carries a reported IC50.
target: Carboxy-terminal domain RNA polymerase II polypeptide A small phosphatase 1 (Homo sapiens); assay: CTDSP1 inhibitors, concentration-response, biochemical, absorbance readout, ultra-high-throughput screen actives (AID 540297); format: functional
Sequence (Q9GZU7 whole entry, the tested form may be a part): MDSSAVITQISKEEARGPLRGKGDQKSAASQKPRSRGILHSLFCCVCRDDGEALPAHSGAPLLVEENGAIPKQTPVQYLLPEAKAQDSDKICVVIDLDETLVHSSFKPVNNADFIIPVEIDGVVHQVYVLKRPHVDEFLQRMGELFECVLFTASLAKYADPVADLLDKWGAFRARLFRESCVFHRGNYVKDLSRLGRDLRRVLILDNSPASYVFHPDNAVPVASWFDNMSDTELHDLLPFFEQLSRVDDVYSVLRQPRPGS
Activity calls are given as the source filed them.

A selection of reference data follows.
In plain terms, CCc1ccc(OCC(=O)NNC(=O)c2ccc(NC(=O)C3CC3)cc2)cc1 has a documented IC50 of 10.5 µM (active)

In plain terms, COc1ccc2cc(C(=O)Nc3ccc(F)cc3)sc(=O)c2c1OC has a documented IC50 of 6.77 µM (active)

Shift focus to the following entry.
In plain terms, Cc1cc(C(=O)N/N=C/c2ccc(-c3ccc([N+](=O)[O-])cc3Cl)o2)[nH]n1 has a documented IC50 of 7.05 µM (active)
